- ASSAY_DETAILS: Inhibition of amyloid beta (1 to 40) fibril formation at 1:1 protein to compound ratio by thioflavin T fluorescence assay relative to untreated control
- CONDITIONS_USED: concentration not given here
Numbered stars: 1 amine (or outer) side, 2 acyl side, 3 side chain; on linkers, the order of the positions; unused ones are H or OH. Square brackets hold non-standard residues; d marks the D form. Peptide text beside a SMILES is read from it. * marks the point of attachment. X1 = O=C(CCOC[C@H]1O[C@@H](OCCCN[*:1])[C@H](O)[C@@H](O)[C@@H]1O)[*:2]; X2 = O=C(CCOC[C@H]1O[C@@H](OCCN[*:1])[C@H](O)[C@@H](O)[C@@H]1O)[*:2]; X3 = O=C(CCOC[C@H]1O[C@H](OCCCN[*:1])[C@H](O)[C@@H](O)[C@@H]1O)[*:2]; X4 = O=C(CCOC[C@H]1O[C@H](OCCN[*:1])[C@H](O)[C@@H](O)[C@@H]1O)[*:2]; Boc = CC(C)(C)OC(=O)*
This section presents compounds with their documented inhibition values.
Report as: number unit

{"COMPOUND": "COC(=O)[C@H](CC(C)C)NC(=O)[C@@H](NC(=O)CCOC[C@H]1O[C@@H](OCCCNC(=O)[C@@H](NC(=O)[C@H](C)NC(=O)OC(C)(C)C)C(C)C)[C@H](O)[C@@H](O)[C@@H]1O)C(C)C (Boc-AV[X1]VL-OMe)", "VALUE_OBSERVED": "52%"}
{"COMPOUND": "COC(=O)[C@H](CC(C)C)NC(=O)[C@@H](NC(=O)CCOC[C@H]1O[C@@H](OCCNC(=O)[C@@H](NC(=O)[C@H](C)NC(=O)OC(C)(C)C)C(C)C)[C@H](O)[C@@H](O)[C@@H]1O)C(C)C (Boc-AV[X2]VL-OMe)", "VALUE_OBSERVED": "40%"}
{"COMPOUND": "COC(=O)[C@H](CC(C)C)NC(=O)[C@@H](NC(=O)CCOC[C@H]1O[C@H](OCCCNC(=O)[C@@H](NC(=O)[C@H](C)NC(=O)OC(C)(C)C)C(C)C)[C@H](O)[C@@H](O)[C@@H]1O)C(C)C (Boc-AV[X3]VL-OMe)", "VALUE_OBSERVED": "60%"}

Q: Quick one: inhibition for COC(=O)[C@H](CC(C)C)NC(=O)[C@@H](NC(=O)CCOC[C@H]1O[C@H](OCCNC(=O)[C@@H](NC(=O)[C@H](C)NC(=O)OC(C)(C)C)C(C)C)[C@H](O)[C@@H](O)[C@@H]1O)C(C)C (Boc-AV[X4]VL-OMe) ?
Ans: 22%

---

- ASSAY_DETAILS: Inhibition of amyloid beta (1 to 40) fibril formation assessed as fold increase in lag time for aggregate formation at 1:1 protein to compound ratio by thioflavin T fluorescence assay relative to untreated control
Numbered stars: 1 amine (or outer) side, 2 acyl side, 3 side chain; on linkers, the order of the positions; unused ones are H or OH. Square brackets hold non-standard residues; d marks the D form. Peptide text beside a SMILES is read from it. * marks the point of attachment. X1 = O=C(CCOC[C@H]1O[C@@H](OCCCN[*:1])[C@H](O)[C@@H](O)[C@@H]1O)[*:2]; X2 = O=C(CCOC[C@H]1O[C@@H](OCCN[*:1])[C@H](O)[C@@H](O)[C@@H]1O)[*:2]; X3 = O=C(CCOC[C@H]1O[C@H](OCCCN[*:1])[C@H](O)[C@@H](O)[C@@H]1O)[*:2]; X4 = O=C(CCOC[C@H]1O[C@H](OCCN[*:1])[C@H](O)[C@@H](O)[C@@H]1O)[*:2]; Boc = CC(C)(C)OC(=O)*
# maps each entry to its fold change (FC)
Keep it simple and answer with nothing but the number.

{"COMPOUND": "COC(=O)[C@H](CC(C)C)NC(=O)[C@@H](NC(=O)CCOC[C@H]1O[C@@H](OCCCNC(=O)[C@@H](NC(=O)[C@H](C)NC(=O)OC(C)(C)C)C(C)C)[C@H](O)[C@@H](O)[C@@H]1O)C(C)C (Boc-AV[X1]VL-OMe)", "VALUE_OBSERVED": 3}
{"COMPOUND": "COC(=O)[C@H](CC(C)C)NC(=O)[C@@H](NC(=O)CCOC[C@H]1O[C@@H](OCCNC(=O)[C@@H](NC(=O)[C@H](C)NC(=O)OC(C)(C)C)C(C)C)[C@H](O)[C@@H](O)[C@@H]1O)C(C)C (Boc-AV[X2]VL-OMe)", "VALUE_OBSERVED": 3.4}
{"COMPOUND": "COC(=O)[C@H](CC(C)C)NC(=O)[C@@H](NC(=O)CCOC[C@H]1O[C@H](OCCCNC(=O)[C@@H](NC(=O)[C@H](C)NC(=O)OC(C)(C)C)C(C)C)[C@H](O)[C@@H](O)[C@@H]1O)C(C)C (Boc-AV[X3]VL-OMe)", "VALUE_OBSERVED": 3.4}

Please turn your attention to the following entry.
Q: Any idea what fold change (FC) was measured for COC(=O)[C@H](CC(C)C)NC(=O)[C@@H](NC(=O)CCOC[C@H]1O[C@H](OCCNC(=O)[C@@H](NC(=O)[C@H](C)NC(=O)OC(C)(C)C)C(C)C)[C@H](O)[C@@H](O)[C@@H]1O)C(C)C (Boc-AV[X4]VL-OMe) ?
Ans: 3.4
